Values compiled from patent US20260108546A1.

target: hGIP-R (Homo sapiens, UniProt P48546); construct: expressed in transfected cells; host or cells: HEK-293 clonal cell lines; assay: Functional hGIP-R Assay (cAMP formation, HTRF); assay type: cell-based; details: cAMP efficacy; percent of maximal response to GIP(1-42)OH; 37° C., 0.1% bovine casein; arithmetic mean ± SEM
Sequence (P48546 22-466): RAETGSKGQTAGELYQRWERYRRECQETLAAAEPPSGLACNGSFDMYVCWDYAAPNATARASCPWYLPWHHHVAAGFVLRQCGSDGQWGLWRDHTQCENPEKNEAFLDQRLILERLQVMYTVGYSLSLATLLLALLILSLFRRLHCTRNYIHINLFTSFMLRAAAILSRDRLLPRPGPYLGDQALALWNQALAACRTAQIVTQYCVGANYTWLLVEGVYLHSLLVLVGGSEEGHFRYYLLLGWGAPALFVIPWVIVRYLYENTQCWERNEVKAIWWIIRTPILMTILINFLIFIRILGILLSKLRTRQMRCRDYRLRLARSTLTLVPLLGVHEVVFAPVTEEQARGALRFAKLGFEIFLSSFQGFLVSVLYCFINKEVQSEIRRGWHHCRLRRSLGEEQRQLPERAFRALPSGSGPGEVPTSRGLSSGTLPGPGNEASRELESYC
Measurement Type: Emax (%)

[2H]C([2H])([2H])N(C(=O)[C@H]1C[C@@H]1c1ccc(-c2cnc3nn(C)cc3c2)nc1C(F)F)[C@@H](Cc1cnn(C(F)F)c1)C(=O)NC(C)(C)Cn1nc(C(F)(F)F)cc1-c1cc(F)c(=O)n(C)c1
52.3
Cc1cn2cc(-c3ccc([C@H]4C[C@@]45CCN([C@H](Cc4cnn(C(F)F)c4)C(=O)NC(C)(C)Cn4nc(C(F)(F)F)cc4-c4cnc(C(F)(F)F)nc4)C5=O)cc3)cnc2n1 (single isomer, unassigned; isomer 1)
69.4
Cn1cc2cc(-c3ccc([C@H]4C[C@@]45CCN([C@H](Cc4cnn(C(F)F)c4)C(=O)NC(C)(C)Cn4nc(C(F)(F)F)cc4-c4cn(C)c(=O)c6ccccc46)C5=O)cc3)cnc2n1
78.6
Cn1cc2cc(-c3ccc([C@H]4C[C@@]45CCN([C@H](Cc4cnn(C(F)F)c4)C(=O)NC(C)(C)Cn4nc(C(F)(F)F)cc4-c4ccc(=O)n(C)c4)C5=O)c(F)c3)cnc2n1
56
Cn1cc(C[C@@H](NC(=O)[C@H]2C[C@@H]2c2ccc(-c3cnc4nn(C)cc4c3)cc2)C(=O)NC(C)(C)Cn2nc(C(F)(F)F)cc2-c2cccn(C)c2=O)cn1
110

A. CN(C)Cc1ccc(-c2cc(C(F)(F)F)nn2CC(C)(C)NC(=O)[C@@H](Cc2cnn(C(F)F)c2)N2CC[C@@]3(C[C@@H]3c3ccc(-c4cnc5nn(C)cc5c4)cc3F)C2=O)cn1
B. Cc1nc(-c2cnc3nc(C4CC4)cn3c2)ccc1[C@H]1C[C@@]12CCN([C@H](Cc1cnn(C(F)F)c1)C(=O)NC(C)(C)Cn1nc(C(F)(F)F)cc1-c1cc(F)c(=O)n(C)c1)C2=O
Exercise: Just curious, which one has the larger Emax reading, A or B ? State the label of the item chosen.
Solution: B

I. Cn1cc(C[C@@H](NC(=O)C2CC2c2ccc(-c3cnc4nccn4c3)cc2C(F)(F)F)C(=O)NC(C)(C)Cc2ccc(F)cc2)cn1 (single isomer, unassigned; isomer 2)
II. CCn1cc2cc(-c3ccc([C@H]4C[C@@]45CCN([C@H](Cc4cnn(C(F)F)c4)C(=O)NC(C)(C)Cn4nc(C(F)(F)F)cc4-c4cnc(C(C)(C)O)nc4)C5=O)c(C)n3)cnc2n1
Exercise: Which has the higher Emax, I or II ? Identify your pick by its label.
Solution: I
